# Test System: T1, TLR7 S530A (Macaca mulatta, UniProt B3Y653 27-839, S530A)
# T1 sequence: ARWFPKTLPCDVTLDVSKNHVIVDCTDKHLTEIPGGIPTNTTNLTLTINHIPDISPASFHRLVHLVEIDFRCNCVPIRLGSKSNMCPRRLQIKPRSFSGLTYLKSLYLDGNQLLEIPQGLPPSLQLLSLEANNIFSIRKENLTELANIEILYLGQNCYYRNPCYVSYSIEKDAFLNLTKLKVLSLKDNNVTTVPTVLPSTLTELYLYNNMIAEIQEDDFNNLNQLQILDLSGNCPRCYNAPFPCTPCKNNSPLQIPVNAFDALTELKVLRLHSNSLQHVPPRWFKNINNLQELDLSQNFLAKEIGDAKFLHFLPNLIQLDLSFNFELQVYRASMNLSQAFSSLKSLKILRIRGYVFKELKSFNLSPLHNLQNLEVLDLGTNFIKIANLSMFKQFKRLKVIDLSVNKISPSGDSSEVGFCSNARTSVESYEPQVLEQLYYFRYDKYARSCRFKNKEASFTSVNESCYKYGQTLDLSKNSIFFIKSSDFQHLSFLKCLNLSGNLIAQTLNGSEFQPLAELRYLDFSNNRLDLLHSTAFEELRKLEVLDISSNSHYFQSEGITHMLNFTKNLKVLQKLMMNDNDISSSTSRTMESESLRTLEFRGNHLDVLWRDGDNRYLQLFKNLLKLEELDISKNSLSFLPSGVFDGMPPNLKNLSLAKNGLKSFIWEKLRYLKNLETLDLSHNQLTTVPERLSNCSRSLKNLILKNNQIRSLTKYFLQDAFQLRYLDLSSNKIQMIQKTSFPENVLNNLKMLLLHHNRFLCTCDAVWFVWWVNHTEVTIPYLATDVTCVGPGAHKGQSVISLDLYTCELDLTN
# Protocol Details: SPR; mean computed from runs 0.1±0.02, 0.2±0.04, 0.2±0.06; SPR with recombinant TLR7/TLR8; buffer, pH and temperature not in the material
# Cond: protein: recombinant; chain copies: 2; single-stranded
Recorded Endpoint: pKd
The scale used: pKd is minus the common logarithm of the concentration in molar units.

Request the reported pKd associated with GUC (XNA, 2'-OMe G1, RNA U2 C3; phosphorothioate linkages) [mGrUrC PS]
6.77

Data credit: paper PMC13043311
